Listed molecules paired with reported RP-LC retention time
assay-remarks: gradient 5% acetonitrile 3 min, to 50% in 2 min, to 85% in 15 min, held 3 min, 100 µL/min
details: column: Zorbax Extend-C18 2.1 x 50 mm; eluents: water / acetonitrile, 0.1% formic acid
Write the value in s as a bare number.

>>> df
                                   molecule     reported_endpoint  result_value
0   CCCCCC(=O)Nc1cc(-c2nc3ccccc3[nH]2)ccc1C  RP-LC retention time           712
1  O=C(CC1CCN(C(=O)c2ccc3oc(-c4ccccc4)nc3c2)CC1)NCC1CCCO1 (stereo unspecified)  RP-LC retention time           718
2                        CCNC(=O)c1cc(C)on1  RP-LC retention time           596

Which measured RP-LC retention time value corresponds to COC(=O)CSC1=C(C#N)C(c2ccsc2)CC(=O)N1 (stereo unspecified) ?
707

Field request: RP-LC retention time | item: CCCn1cnc2cc(CNC(=O)Cc3c(Cl)cccc3Cl)ccc21
666

Quick check: RP-LC retention time of Cc1nn2c(S(=O)(=O)NC3CCCCCC3)c(C)nc2s1 ?
844

* * *

assay-remarks: gradient 5% acetonitrile 3 min, to 50% in 2 min, to 85% in 15 min, held 3 min, 100 µL/min
details: column: Zorbax Extend-C18 2.1 x 50 mm; eluents: water / acetonitrile, 0.1% formic acid
RP-LC retention time values by entry
Number only, in s; omit the unit.

Solved entries (count: 2):
>>> df
                                   compound  result_value
0  COc1cc(C(=O)NC2CCN(c3cc(-c4ccc(F)cc4)[nH]n3)C2)cc(OC)c1OC (stereo not given)           706
1  O=C(NCC1CC1)C1CCN(c2nc3ccsc3c(=O)n2Cc2ccccc2)CC1           814

Reported RP-LC retention time for O=C(CN1c2ccc(F)cc2-c2ccccc2S1(=O)=O)NCCN1CCOCC1 : what is it?
624

Entry under review: COc1ccc(CCNC(=O)C(=O)NCc2ccc(F)cc2)cc1OC . Reported RP-LC retention time?
770

// RP-LC retention time lookup, key: O=C(Cn1c(=O)n(-c2ccccc2)c2ncccc21)NC1CCCCCC1
845

What RP-LC retention time value was documented for this compound, Cc1nc2cccnc2n1C1CCN(C(=O)Nc2cccc(Br)c2)CC1 ?
673

What RP-LC retention time value was documented for this compound, CCn1ccc(C(=O)N2CCC(Cc3nc4cccnc4n3CC(C)C)C2)n1 (stereo not given) ?
619

Look at this compound and give its reported RP-LC retention time. CCOC(=O)c1noc2ncnc(Nc3cc(F)ccc3F)c12
799

Recorded RP-LC retention time of O=C(NCCn1cnc2ccccc2c1=O)C1CC(=O)N(c2n[nH]c3ccccc23)C1 (stereo not given) , please.
632

Name the recorded RP-LC retention time for CCOC(=O)N1CCN(/C=C2\Oc3c(ccc(O)c3C)C2=O)CC1 .
637

Which value of RP-LC retention time has been reported for CCOC(=O)CCc1c(C)c2c(O)cc(O)cc2oc1=O in the records?
701

# RP-LC retention time lookup, item O=C(Cn1nc2c(N3CCSCC3)nccn2c1=O)Nc1ccc2c(c1)OCCO2
737

I have this compound here, O=C(C1CCCN(c2nnc(-n3cccc3)s2)C1)N1CCN(c2ccc(F)cc2)CC1 (stereo not given) , and I need its recorded RP-LC retention time.
950

Fill blank: measured RP-LC retention time of the compound CCN(CC)C(=O)N1CC(Cn2c(C)cnc2-c2ccncc2)C1 is ____.
568

May I ask what RP-LC retention time has been recorded for COc1cc(OC)cc(C(=O)N2CCC3(CC2)NC(=O)c2ccccc2N3C)c1 ?
734
